B1: library; numbered along this chain (parent)
chain: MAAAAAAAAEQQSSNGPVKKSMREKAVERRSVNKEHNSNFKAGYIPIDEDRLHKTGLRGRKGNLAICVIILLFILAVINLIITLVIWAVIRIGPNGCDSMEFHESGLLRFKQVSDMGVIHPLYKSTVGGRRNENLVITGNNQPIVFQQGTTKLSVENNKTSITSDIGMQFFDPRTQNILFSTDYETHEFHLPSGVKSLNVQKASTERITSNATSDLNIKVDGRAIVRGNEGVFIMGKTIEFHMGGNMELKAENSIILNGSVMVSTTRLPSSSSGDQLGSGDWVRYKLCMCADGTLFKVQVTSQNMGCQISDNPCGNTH

Variants of: B1
measurementDescription: SGCB cell-surface expression functional score (HA stain, bin4 vs bin1, normalised to synonymous) (log10 ratio); higher = more cell-surface SGCB (functional)
Could you label it true if measured SGCB cell-surface expression functional score (log10) is 0.02 or higher, and false otherwise?

Q: Is the recorded value of SGCB cell-surface expression functional score (log10) equal to or greater than 0.02 for this variant? G222R
Ans: false

Q: Is the recorded value of SGCB cell-surface expression functional score (log10) equal to or greater than 0.02 for this variant? K196C
Ans: false

Q: Is the recorded value of SGCB cell-surface expression functional score (log10) equal to or greater than 0.02 for this variant? D165Q
Ans: false

Q: Is the recorded value of SGCB cell-surface expression functional score (log10) equal to or greater than 0.02 for this variant? G245E
Ans: true

Q: Is the recorded value of SGCB cell-surface expression functional score (log10) equal to or greater than 0.02 for this variant? G228H
Ans: false

Q: Is the recorded value of SGCB cell-surface expression functional score (log10) equal to or greater than 0.02 for this variant? A5N
Ans: false

Q: Is the recorded value of SGCB cell-surface expression functional score (log10) equal to or greater than 0.02 for this variant? L216S
Ans: false

Q: Is the recorded value of SGCB cell-surface expression functional score (log10) equal to or greater than 0.02 for this variant? E185V
Ans: false

Q: Is the recorded value of SGCB cell-surface expression functional score (log10) equal to or greater than 0.02 for this variant? S21C
Ans: true

Q: Is the recorded value of SGCB cell-surface expression functional score (log10) equal to or greater than 0.02 for this variant? T265D
Ans: false

Q: Is the recorded value of SGCB cell-surface expression functional score (log10) equal to or greater than 0.02 for this variant? Q142C
Ans: false

Q: Is the recorded value of SGCB cell-surface expression functional score (log10) equal to or greater than 0.02 for this variant? T317D
Ans: false

Q: Is the recorded value of SGCB cell-surface expression functional score (log10) equal to or greater than 0.02 for this variant? L107E
Ans: false

Q: Is the recorded value of SGCB cell-surface expression functional score (log10) equal to or greater than 0.02 for this variant? N134Y
Ans: false

Q: Is the recorded value of SGCB cell-surface expression functional score (log10) equal to or greater than 0.02 for this variant? I78P
Ans: false

Q: Is the recorded value of SGCB cell-surface expression functional score (log10) equal to or greater than 0.02 for this variant? R29I
Ans: true
